- assayed-target: Ba/F3-Tel-KDR cells (Homo sapiens, UniProt P35968)
- Construct: fused on or other part: N-terminal oligomerising part of TEL (ETV6) fused to the tyrosine kinase domain of KDR; P41212 (Transcription factor ETV6)
- Sequence (P35968 whole entry, change not shown, the tested form may be a part): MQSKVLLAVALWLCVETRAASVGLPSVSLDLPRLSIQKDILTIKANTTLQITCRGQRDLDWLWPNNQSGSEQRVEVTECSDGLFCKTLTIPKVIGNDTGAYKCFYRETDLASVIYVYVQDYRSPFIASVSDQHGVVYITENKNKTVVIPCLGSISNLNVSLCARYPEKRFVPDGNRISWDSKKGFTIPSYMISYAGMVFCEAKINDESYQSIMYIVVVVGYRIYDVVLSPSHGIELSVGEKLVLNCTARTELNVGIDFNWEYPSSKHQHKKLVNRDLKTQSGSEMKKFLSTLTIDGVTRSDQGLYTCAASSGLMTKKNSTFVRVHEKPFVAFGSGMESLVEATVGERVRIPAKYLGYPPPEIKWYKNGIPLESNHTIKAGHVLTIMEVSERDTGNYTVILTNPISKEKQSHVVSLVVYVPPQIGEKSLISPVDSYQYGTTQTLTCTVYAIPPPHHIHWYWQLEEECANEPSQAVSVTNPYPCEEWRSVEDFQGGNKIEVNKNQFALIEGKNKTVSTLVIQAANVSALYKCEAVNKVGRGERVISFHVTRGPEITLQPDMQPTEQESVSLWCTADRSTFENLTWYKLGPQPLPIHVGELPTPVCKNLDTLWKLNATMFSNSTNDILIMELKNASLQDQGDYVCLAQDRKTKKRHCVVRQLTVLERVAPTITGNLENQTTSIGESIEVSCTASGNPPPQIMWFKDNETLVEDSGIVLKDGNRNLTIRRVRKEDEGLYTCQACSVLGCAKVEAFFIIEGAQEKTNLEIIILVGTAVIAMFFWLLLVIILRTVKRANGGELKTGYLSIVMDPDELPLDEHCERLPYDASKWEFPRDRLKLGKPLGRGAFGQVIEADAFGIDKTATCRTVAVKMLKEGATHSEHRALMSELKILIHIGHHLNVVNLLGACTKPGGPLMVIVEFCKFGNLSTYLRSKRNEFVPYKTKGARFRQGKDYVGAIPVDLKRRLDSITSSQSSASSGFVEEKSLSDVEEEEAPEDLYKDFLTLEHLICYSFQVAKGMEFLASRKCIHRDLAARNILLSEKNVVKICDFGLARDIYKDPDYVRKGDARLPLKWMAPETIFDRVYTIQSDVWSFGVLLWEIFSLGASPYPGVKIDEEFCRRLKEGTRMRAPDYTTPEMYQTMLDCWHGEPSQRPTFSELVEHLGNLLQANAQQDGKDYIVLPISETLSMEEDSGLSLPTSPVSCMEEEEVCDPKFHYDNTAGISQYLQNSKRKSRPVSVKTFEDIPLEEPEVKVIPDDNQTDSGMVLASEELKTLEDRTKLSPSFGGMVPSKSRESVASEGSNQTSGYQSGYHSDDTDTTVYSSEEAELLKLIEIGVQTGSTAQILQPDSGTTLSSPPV
- protocol-description: Ba/F3-Tel-KDR cell viability inhibition assay (CellTiter-Glo)
- Assay type: cell-based
- condition-details: 48 hour incubation, read-out: IC50 (the source's name)
measured-quantity: log10(GI50) (log10 of the value in nM)

INSERT INTO results (molecule, observed) VALUES
  ('CC(C)c1cc(NC(=O)n2ccc3cc(Oc4cc(CNC5CC5)ncn4)ccc32)n[nH]1 [Example 137-I]', 2.00),
  ('O=C(Nc1cccc(C(F)(F)F)c1)n1ccc2cc(Oc3ncnc4c3CCN(CCO)C4)ccc21 [Example 96-A]', 0.00),
  ('C[C@H]1Cc2c(ncnc2Oc2ccc3c(ccn3C(=O)Nc3cc(C4(C(F)(F)F)CC4)on3)c2)CN1CC1CC1 [Example 136-K]', 1.96),
  ('O=C(Nc1cccc(C(F)(F)F)c1)n1ccc2cc(Oc3ccnc(CO)c3)ccc21 [Example 25-D]', 0.48),
  ('CNCc1cc(Oc2ccc3c(ccn3C(=O)Nc3cc(C)n(CC(F)(F)F)n3)c2)ncn1 [Example 137-P]', 1.04),
  ('C[C@H]1Cc2c(ncnc2Oc2ccc3c(ccn3C(=O)Nc3cc(C4CC4)on3)c2)CN1C [Example 136-J]', 1.56);

These entries and their values trace back to patent US8242125B2.
